# Lookup of reported pEC50 keyed by entry
# Tested on: Human immunodeficiency virus 1
# procedure_summary: Antiviral activity against HIV1 expressing reverse transcriptase E138K mutant infected in human MT4 cells assessed as protection against virus-induced cytopathic effect after 5 days by MTT assay
# Type: functional, cell-based
# condition_details: Human immunodeficiency virus 1, MT4, 120 h
pEC50: −log10 of the molar value.

>  <smiles_data>
Cc1cc(C)cc(S(=O)(=O)c2c(C(=O)NCC3CCN(CCO)CC3)[nH]c3ccc(Cl)cc23)c1

>  <pEC50>
6.52

$$$$
>  <smiles_data>
Cc1ccnc2c1NC(=O)c1cccnc1N2C1CC1

>  <pEC50>
6.80

$$$$
>  <smiles_data>
CC(C)Nc1cccnc1N1CCN(C(=O)c2cc3cc(NS(C)(=O)=O)ccc3[nH]2)CC1

>  <pEC50>
7.15

$$$$
>  <smiles_data>
Cc1cc(C#N)cc(C)c1Oc1nc(Nc2ccc(C#N)cc2)nc(N)c1Br

>  <pEC50>
7.96

$$$$
>  <smiles_data>
Cc1cc(C)cc(S(=O)(=O)c2c(C(=O)NC3CCN(CCO)CC3)[nH]c3ccc(Br)cc23)c1

>  <pEC50>
6.85

$$$$

###

# procedure_summary: in vitro
# condition_details: human, MT4 cells
# Description: Selectivity index, ratio of CC50 for human MT4 cells to EC50 for HIV1 3B expressing wild type reverse transcriptase

>  <molecule>
Cc1cc(C)cc(S(=O)(=O)c2c(C(=O)NC3CCN(CCO)CC3)[nH]c3ccc(Br)cc23)c1

>  <selectivity ratio>
1000

$$$$
>  <molecule>
Cc1cc(C)cc(S(=O)(=O)c2c(C(=O)NCC3CCN(CCO)CC3)[nH]c3ccc(Cl)cc23)c1

>  <selectivity ratio>
205

$$$$
>  <molecule>
CC(C)Nc1cccnc1N1CCN(C(=O)c2cc3cc(NS(C)(=O)=O)ccc3[nH]2)CC1 [DELAVIRDINE]

>  <selectivity ratio>
1880

$$$$

###

selectivity ratio values for the compounds below.
# procedure_summary: in vitro
# condition_details: human, MT4 cells
# Description: Selectivity index, ratio of CC50 for human MT4 cells to EC50 for HIV1 expressing reverse transcriptase L100I mutant

>  <compound>
CC(C)Nc1cccnc1N1CCN(C(=O)c2cc3cc(NS(C)(=O)=O)ccc3[nH]2)CC1 [DELAVIRDINE]

>  <selectivity ratio>
13

$$$$
>  <compound>
Cc1cc(C)cc(S(=O)(=O)c2c(C(=O)NCC3CCN(CCO)CC3)[nH]c3ccc(Cl)cc23)c1

>  <selectivity ratio>
59

$$$$
>  <compound>
Cc1cc(C)cc(S(=O)(=O)c2c(C(=O)NC3CCN(CCO)CC3)[nH]c3ccc(Br)cc23)c1

>  <selectivity ratio>
368

$$$$

###

Below, each entry is listed alongside its reported selectivity ratio.
# procedure_summary: in vitro
# condition_details: human, MT4 cells
# Description: Selectivity index, ratio of CC50 for human MT4 cells to EC50 for HIV1 expressing reverse transcriptase Y181C mutant
measured_parameter: selectivity ratio

>  <compound>
Cc1cc(C)cc(S(=O)(=O)c2c(C(=O)NC3CCN(CCO)CC3)[nH]c3ccc(Br)cc23)c1

>  <measured_parameter>
selectivity ratio

>  <value_reported>
48

$$$$
>  <compound>
CC(C)Nc1cccnc1N1CCN(C(=O)c2cc3cc(NS(C)(=O)=O)ccc3[nH]2)CC1 [DELAVIRDINE]

>  <measured_parameter>
selectivity ratio

>  <value_reported>
23

$$$$
>  <compound>
Cc1cc(C)cc(S(=O)(=O)c2c(C(=O)NCC3CCN(CCO)CC3)[nH]c3ccc(Cl)cc23)c1

>  <measured_parameter>
selectivity ratio

>  <value_reported>
12

$$$$

Recorded values, source ChEMBL document CHEMBL4002552.
